procedure.text: In vitro inhibitory activity against ADP-induced human platelet aggregation
parameter.measured: IC50 (µM)

Answered examples (5):
COC(=O)COc1ccc2c(=O)c(C)c(N3CCOCC3)oc2c1C    59
Cc1c(OCC(=O)c2ccccc2)ccc2c(=O)cc(N3CCOCC3)oc12    43
Cc1c(OCCN2CCNCC2)ccc2c(=O)cc(N3CCOCC3)oc12    4
CCc1c(OCCN2CCN(C)CC2)ccc2c(=O)cc(N3CCOCC3)oc12    4
Cc1c(OCc2ccccc2)ccc2c(=O)cc(N3CCOCC3)oc12    40

I = Cc1c(OCCN2CCN(C)CC2)ccc2c(=O)cc(N3CCOCC3)oc12
II = COCCOc1ccc2c(=O)cc(N3CCOCC3)oc2c1C
III = Cc1c(OCCN2CCN(Cc3ccccc3)CC2)ccc2c(=O)cc(N3CCOCC3)oc12
IV = CN1CCN(CCOc2ccc3c(=O)cc(N4CCOCC4)oc3c2)CC1
# desc sort on IC50 across 4 compounds Output the labels ranked as instructed.
IV, III, II, I
(IV: 35 µM, III: 11 µM, II: 7 µM, I: 0.85 µM)

I = Cc1c(OCCN2CCCCC2)ccc2c(=O)cc(N3CCOCC3)oc12
II = Cc1c(OCCN2CCN(CCO)CC2)ccc2c(=O)cc(N3CCOCC3)oc12
I need your help: which of the pair I , II has higher IC50? // respond with label for picked entry
II
(II: 12 µM, I: 5 µM)

###

Here the recorded IC50 is given for each entry.
procedure.text: In vitro inhibitory activity against ADP-induced human platelet aggregation

Cc1c(N2CCOCC2)oc2c(C)c(OCc3ccccc3)ccc2c1=O    > 75 µM
Cc1c(OCCN2CCN(c3ccccc3)CC2)ccc2c(=O)cc(N3CCOCC3)oc12    > 75 µM

Attention now turns to another entry.
Fill blank: measured IC50 of the compound `Cc1c(N2CCOCC2)oc2c(C)c(OCc3cccc4ccccc34)ccc2c1=O` is ____.
> 75 µM
